# Measurement notes: Clinical chemistries in serum of rats
# Type: in vivo, male Sprague-Dawley rats
# Test context: rat serum, diet 0.3%, 4 days
Readout label: ALP (alkaline phosphatase), percent of control (%)

{"Smiles repr": "CC(C)(C)c1cc(SC[Si](C)(C)c2ccccc2)cc(C(C)(C)C)c1OC(=O)CCC(=O)O", "Output unit": "%", "Observed value": 147}
{"Smiles repr": "CC(C)(C)c1cc(OC[Si](C)(C)c2ccc(C(F)(F)F)cc2)cc(C(C)(C)C)c1O", "Output unit": "%", "Observed value": 105}
{"Smiles repr": "COc1ccc([Si](C)(C)COc2ccc(O)c(C(C)(C)C)c2)cc1", "Output unit": "%", "Observed value": 69}
{"Smiles repr": "CC(C)(C)c1cc(OC[Si](C)(C)c2ccccc2)ccc1O", "Output unit": "%", "Observed value": 80}
{"Smiles repr": "CC(=O)Oc1c(C(C)(C)C)cc(OC[Si](C)(C)c2ccccc2)cc1C(C)(C)C", "Output unit": "%", "Observed value": 147}
{"Smiles repr": "CC(C)(C)c1cc(OC[Si](C)(C)c2ccccc2)c(C(C)(C)C)cc1O", "Output unit": "%", "Observed value": 130}
{"Smiles repr": "Cc1cc(OC[Si](C)(C)c2ccccc2)c(C)c(C)c1O", "Output unit": "%", "Observed value": 154}
{"Smiles repr": "CC(=O)Oc1ccc(OC[Si](C)(C)c2ccccc2)cc1C(C)(C)C", "Output unit": "%", "Observed value": 90}
